molecular target: Tumor necrosis factor receptor superfamily member 10B (Homo sapiens) (UniProt O14763); assay: caspase-8 TRAIL sensitization, hit retest, confirmation, cell-based, NB7+caspase-8, with/without TRAIL, luminescence panel (AID 651596); conditions: NB7 neuroblastoma + caspase-8, TRAIL sensitization, luminescence viability, with TRAIL, mean of runs, at 10 µM, stronger effect = higher value
Sequence (O14763 whole entry, looked up): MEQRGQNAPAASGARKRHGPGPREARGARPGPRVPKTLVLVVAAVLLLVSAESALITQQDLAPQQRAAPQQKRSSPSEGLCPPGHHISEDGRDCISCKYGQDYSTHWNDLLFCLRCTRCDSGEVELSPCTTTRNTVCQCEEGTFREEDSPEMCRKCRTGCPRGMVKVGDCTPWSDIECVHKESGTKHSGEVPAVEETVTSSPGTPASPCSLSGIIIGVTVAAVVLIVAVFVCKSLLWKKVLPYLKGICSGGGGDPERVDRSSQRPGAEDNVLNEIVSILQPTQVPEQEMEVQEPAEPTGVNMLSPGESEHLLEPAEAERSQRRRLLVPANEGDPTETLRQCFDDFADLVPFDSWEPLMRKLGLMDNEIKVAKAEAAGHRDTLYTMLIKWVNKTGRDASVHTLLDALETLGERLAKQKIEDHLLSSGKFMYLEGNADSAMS
Let's look at some molecules and their measured activity.
Return type: number; implicit unit %.

- Molecule: "Fc1ccc(-c2cnn3c(-c4ccncc4)ccnc23)cc1"
  Target or test system: "Tumor necrosis factor receptor superfamily member 10B (Homo sapiens) (UniProt O14763)"
  activity, %: 49.5
- Molecule: "O=C(c1ccc2c3n(nc2c1)-c1ccccc1CO3)N1CCCCC1"
  Target or test system: "Tumor necrosis factor receptor superfamily member 10B (Homo sapiens) (UniProt O14763)"
  activity, %: 79.2
- Molecule: "Cc1ccc2nc(-c3ccc(NC(=O)COC(=O)c4ccc([N+](=O)[O-])o4)cc3)sc2c1"
  Target or test system: "Tumor necrosis factor receptor superfamily member 10B (Homo sapiens) (UniProt O14763)"
  activity, %: 70.1
- Molecule: "C#CCN(C[C@@H]1[C@@H](OC(=O)Nc2cccs2)[C@@H](OC(=O)Nc2cccs2)Cn2c(=O)ccc(=O)n21)S(=O)(=O)c1ccc(C)cc1"
  Target or test system: "Tumor necrosis factor receptor superfamily member 10B (Homo sapiens) (UniProt O14763)"
  activity, %: 96.5
- Molecule: "CCn1cc(C(=O)NCC(OC)OC)c(=O)c2cc(S(=O)(=O)N3CCC(C)CC3)ccc21"
  Target or test system: "Tumor necrosis factor receptor superfamily member 10B (Homo sapiens) (UniProt O14763)"
  activity, %: 57.3
- Molecule: "Clc1ccc(/C=N/Nc2nnc(-c3ncc[nH]3)c3ccccc23)cc1"
  Target or test system: "Tumor necrosis factor receptor superfamily member 10B (Homo sapiens) (UniProt O14763)"
  activity, %: 57
- Molecule: "Cc1cccc(-c2nc3cc(NC(=O)C4CCCO4)ccc3o2)c1 (stereo not drawn)"
  Target or test system: "Tumor necrosis factor receptor superfamily member 10B (Homo sapiens) (UniProt O14763)"
  activity, %: 66.7
- Molecule: "Fc1ccc(-c2nc(-c3cnccn3)no2)c(Cl)c1"
  Target or test system: "Tumor necrosis factor receptor superfamily member 10B (Homo sapiens) (UniProt O14763)"
  activity, %: 59.1

get_value(item= `c1ccc(-c2noc(-c3ccc4c(c3)OCO4)n2)nc1` , readout=activity) returns 93.2

The recorded activity for entry `COc1ccc(N(Cc2cc(=O)[nH]c3ccccc23)C(=O)CCl)cc1` equals 99.3

// field: activity; key: `O=C(CN(Cc1ccccc1)C(=O)CCl)c1cccc(Br)c1` ; value = 99.3

Query `CCCCCCCN(C(=O)CCl)c1ccccc1C` yields activity of 99.6

According to the records, this molecule `COc1ccc(-c2cc(-c3ccccc3)c(C#N)c(S(C)(=O)=O)n2)cc1` displays activity of 79.3

Short answer for `C=C1CCc2c([nH]c3ccc(OCC(C)C)cc23)C1=O` : activity was 91.8

---

target: PEG-3 (UniProt Q6IN02); assay: Peg3 promoter luciferase inhibitors, potency, dose response, cell-based, HeLa, CREF/GAPDH counter-screen panel (AID 624167); details: CREF/GAPDH counter-screens; HeLa PEG-Prom luciferase reporter, overnight, run 2, dose range 1, at 100 µM (top of the series) unless noted
Sequence (Q6IN02 whole entry, looked up): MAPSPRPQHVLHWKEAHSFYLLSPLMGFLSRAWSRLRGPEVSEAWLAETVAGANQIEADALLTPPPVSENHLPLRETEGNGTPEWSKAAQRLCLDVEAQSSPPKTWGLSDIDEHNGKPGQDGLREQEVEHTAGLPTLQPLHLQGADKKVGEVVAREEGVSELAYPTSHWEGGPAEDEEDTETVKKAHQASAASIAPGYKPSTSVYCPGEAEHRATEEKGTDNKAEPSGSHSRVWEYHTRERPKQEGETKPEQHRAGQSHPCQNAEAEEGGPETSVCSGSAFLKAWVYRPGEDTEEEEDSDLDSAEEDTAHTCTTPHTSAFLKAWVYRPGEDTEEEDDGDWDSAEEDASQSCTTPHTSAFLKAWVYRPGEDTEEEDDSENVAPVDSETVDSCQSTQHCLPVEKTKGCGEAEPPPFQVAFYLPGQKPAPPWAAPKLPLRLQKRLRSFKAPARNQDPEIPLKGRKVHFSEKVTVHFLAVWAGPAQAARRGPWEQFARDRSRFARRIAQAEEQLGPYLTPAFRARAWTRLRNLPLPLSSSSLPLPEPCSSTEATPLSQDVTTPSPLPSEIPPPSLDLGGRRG
Measured quantity: inhibition (%)
Output spec: scalar in %, unitless text.

# example entries with known answers
- Molecule: "O=C(CCCN1C(=O)/C(=C/c2cccc(Br)c2)SC1=S)Nc1cccnc1"
  inhibition / %: 96.5
- Molecule: "Cc1nn(-c2ccccc2Cl)c(Cl)c1/C=N/Nc1nc2ccccc2s1"
  inhibition / %: 47.3
- Molecule: "Cc1ccccc1CNC(=O)C1CCCN(c2nnc(C)c3c(C)n(-c4ccccc4)nc23)C1 (stereo not given)"
  inhibition / %: 101
- Molecule: "CCOC(=O)c1cccc(Nc2nc(-c3cccnc3)nc3ccccc23)c1"
  inhibition / %: 101
- Molecule: "Cc1cc(C)c2sc(N(CCCN(C)C)C(=O)c3ccc(S(=O)(=O)N(C)C4CCCCC4)cc3)nc2c1"
  inhibition / %: 101

Note to self: inhibition recorded for `CC(C)(C)c1ccc(/C=N/Nc2ccc(C(=O)O)cc2)cc1` was 98.5

---

tested on: Rat fibroblasts (CREF); assay: Peg3 promoter luciferase inhibitors, potency, dose response, cell-based, HeLa, CREF/GAPDH counter-screen panel (AID 624167); conditions: CREF/GAPDH counter-screens; run 2, dose range 1, at 100 µM (top of the series)
Measured quantity: inhibition (%)
All answers are understood in %, so give the number only.

Consider the reported inhibition for these molecules:
- Molecule: "CCN(CCO)c1ccc(N=Nc2cc(C)[nH]n2)cc1"
  Target or test system: "Rat fibroblasts (CREF)"
  Measured quantity: "inhibition"
  Reported result: 98.6
- Molecule: "Oc1c(Br)cc(Br)c2cccnc12"
  Target or test system: "Rat fibroblasts (CREF)"
  Measured quantity: "inhibition"
  Reported result: 94.5
- Molecule: "O=C(/C=C\\Nc1ccc2c(c1)OCO2)c1ccccn1"
  Target or test system: "Rat fibroblasts (CREF)"
  Measured quantity: "inhibition"
  Reported result: 97.2

Lab book: inhibition of `CC(=O)CSc1ccc(-c2nc3cc(C)c(C)cc3[nH]2)cn1` noted as 95.4

// inhibition value for `O=[N+]([O-])c1nn(-c2ccc3c(c2)OCCO3)n(O)c1=Nc1ccc(Cl)cc1` : 8.03

For record `COc1ccc(-c2cc3nc(C)n(N)c(=O)c3s2)cc1` the listed inhibition is 98.9

Memo: `CC(=O)c1ccc(-c2cnc3c(NC=O)cc(-c4ccccc4Oc4ccccc4)cn23)cc1` , reported inhibition: 94.9

Sure, the documented inhibition for `CN=c1sc2c(n1C)C(=O)c1ccccc1C2=O` is 98.9

inhibition reading for `CN(C)c1ccc(/C=C/c2nc3ccccc3s2)cc1` : 94.9

Record `CCCn1nc(C(=O)Nc2nc(-c3ccccn3)cs2)c2ccccc2c1=O` , field inhibition: 23.2

For reference, reported inhibition for CCCC(=O)NC(c1ccc(N(C)C)cc1)c1ccc2cccnc2c1O (centres undefined) stands at 43.5

The recorded inhibition for entry `O=C(/C=C/Nc1ccccc1Br)c1ccccn1` equals 98.9

Value of inhibition reported for the molecule `Cc1ccc2nc(-c3ccccc3)cn2c1` is 99.1

---

assay: inhibitors of PAF-induced NFkB signaling in CF airway cells, dose response, cell-based, uHTS hits, panel, cytotoxicity readout (AID 624344); details: CF bronchial epithelial cells, PAF-induced NFkB reporter inhibition, with PAF, run 1; at 79 µM (top of the series) unless noted
Measured quantity: inhibition (%)
# value in %; strip the unit string

In the examples that follow, each entry is paired with its recorded inhibition.
- Molecule: "Cc1cc(C)c2nc(C(F)(F)F)c(C#N)c(N)c2c1"
  Reported result: 97.7
- Molecule: "CS(=O)(=O)c1ccc2nc(NC(=O)CCS(=O)(=O)c3ccccc3)sc2c1"
  Reported result: 98.1

CC1C(c2ccccc2)OCCN1C(=S)Nc1ccc(S(=O)(=O)N2CCCCC2)cc1 (stereo not given) yielded inhibition of 100

What the record says about `C=C1C(=O)[C@]23C[C@H]1CC[C@H]2[C@]1(C)[C@@H](OC(C)=O)CC[C@@](C)(C(=O)O)[C@H]1C[C@@H]3O` : inhibition is 97.6

So, `O=Nc1c(O)n(Cc2c(Cl)cccc2Cl)c2ccccc12` ? Its inhibition was 103

---

experiment: inhibition of Brca1/Bard1 split-luciferase complementation, confirmation, counter-screen for Mdm2/MdmX interaction inhibitor project, luminescence, single concentration (AID 504668); conditions: Brca1/Bard1 bimolecular luciferase complementation counterscreen, at 8 µM, stronger effect = higher value
Measured quantity: inhibition (%)
The answer is to be given in %; state only the numeric part.

- Compound: "CN1CCN(c2ncnc3scc(-c4ccccc4Cl)c23)CC1"
  Unit of measure: "%"
  inhibition: 28.7
- Compound: "Cc1cccc(NC(c2ccc(C)s2)c2ccc3ccc(C)nc3c2O)n1 (stereo unspecified)"
  Unit of measure: "%"
  inhibition: 23.7
- Compound: "COc1ccc(-c2cc(C(=O)NNC3=NCCC3)c3c(C)nn(-c4ccccc4)c3n2)cc1"
  Unit of measure: "%"
  inhibition: 34.3
- Compound: "O=C(/C=C/c1c(F)cccc1Cl)c1ccc(O)cc1"
  Unit of measure: "%"
  inhibition: 32.3
- Compound: "Oc1ccc(Br)cc1CNc1cccc2cccnc12"
  Unit of measure: "%"
  inhibition: 25.6

Sure, the documented inhibition for `O=C(Nc1ccc(Cl)cc1)Nc1ccc(N2CCCC2)c(S(=O)(=O)Nc2ccccc2Cl)c1` is 24

Value of measured inhibition for the entry `O=C(Oc1c(Cl)cc(Cl)c2cccnc12)c1cccs1` : 32.1

compound `C/C(N=Nc1nc2ccccc2s1)=N\Nc1ccccc1O` , inhibition observed: 26.2

Record N#CC(c1ccc(Cl)cc1)c1ccc2c(C(F)(F)F)cc(C(F)(F)F)nc2n1 (stereo unspecified) , field inhibition: 24

inhibition recorded for this compound, Nc1nc(Cl)nc2c1ncn2C1CC(O)C(CO)O1 (stereo unspecified) , is 25.6

Recorded result, `CN1CCN(C(=O)CCCN2C(=O)/C(=C/c3cccc(Br)c3)SC2=S)CC1` , inhibition: 29.2
